Test system: HSkMC (human skeletal muscle cells)
Experiment: cytotoxicity call (relative viability < 0.9)
Conditions: 10 µM
Among all 39,000 compounds or so, about 1,500 (3.8%) were called active. This excerpt belongs to a sample that is enriched for actives.
Bench note: report the call from active, inactive

Reference set, count: 2
[
  {
    "molecular.string": "CC[C@@H](C)c1ccc(NC(=O)c2cc3ccccc3o2)cc1",
    "class.label": "inactive"
  },
  {
    "molecular.string": "CC(C)c1cc(C(C)C)c(CC(=O)NS(=O)(=O)Oc2c(C(C)C)cccc2C(C)C)c(C(C)C)c1",
    "class.label": "active"
  }
]

Query string: Just curious, what result did "C[C@@H]1CN([C@@H](C)CO)C(=O)Cc2cc(NC(=O)Nc3ccc(C(F)(F)F)cc3)ccc2O[C@@H]1CN(C)C(=O)Nc1cccc2ccccc12" get here?
Result string: active

Query string: Just curious, what result did "COC(=O)[C@@H](N)c1cccc(OC)c1" get here?
Result string: inactive

Query string: Just curious, what result did "Cc1noc(C)c1NC(=O)Nc1ccc2c(c1)C(=O)N([C@H](C)CO)C[C@@H](C)[C@@H](CN(C)Cc1ccc3c(c1)OCO3)OCCCC[C@@H](C)O2" get here?
Result string: inactive

Query string: Just curious, what result did "CC(C)c1cccc(C(C)C)c1NC(=O)Cc1cccs1" get here?
Result string: inactive

Query string: Just curious, what result did "C[C@H]1CN([C@@H](C)CO)C(=O)Cc2cc(NC(=O)Nc3cccc4ccccc34)ccc2O[C@@H]1CN(C)Cc1ccc(C(F)(F)F)cc1" get here?
Result string: inactive

Query string: Just curious, what result did "C[C@H]1CN([C@@H](C)CO)C(=O)Cc2cc(NC(=O)Nc3cccc4ccccc34)ccc2O[C@H]1CN(C)Cc1ccc(C(F)(F)F)cc1" get here?
Result string: active

Attribution: the antibiotic and cytotoxicity screens of Wong et al. (2023)
